# PROTOCOL DESCRIPTION: label from the status in PepcDB records
QUANTITY NAME: protein production

query_sequence=MSLPANQIKEPGKQFQPAKSLKEPSQESLPGNLLKEPSQESRILCPDPDIVVELNVGGQFYTTTMGTLMKHPGSKFSEILSRSAKHYKDAQGRFFIDRPGTYFGPLLDYLRTGQVPTEYIPEVYQEAKFYQIHPLVKLLEDKPQIFGEQVARMQFLMGVPNYRENLEVLLHLARAEAVAMRSSKVVVCVVRTEEDDAKCTEPLHILEAKKTPVVKFGPWKAGPVTEDFVYCLEKDIRAKGYTVASQRYHLSRDPYTCFWILVFTWW value_observed=failed
query_sequence=MKKIIGLLFIVSCCILLSPTIKVQADTVPLPAPIIEAFPVEAIAEAIAEELDKDSVNDIITQEDLDTITILPFPGLNLTGEDLNVLNNEVFTNATELAIWSNNIGEMPDLSESLPALETIKASDANITQFPNANYPNLTTVDFSKNNFGINIPEFIGMEKLVSINMEQAELSGYIAKDIWMNMPNLETLLLRDNHLISIPEDIFLTGQIRNRSFDGQTATYPPRTIKQGENLDVFVPFIYQALDFIAPAPGNEMIINDNGEFLYKPVYPSYTGSYMYTIETAGLEPGEHLLEISLNYNGSEYLGWYDFPVTITE value_observed=failed
